All figures here come from PubChem BioAssay AID1159580.

assay details: chemical genetic growth profiling, strain panel (AID 1159580);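 note: tested at 20 µM; growth read once vehicle control cultures reached saturation at 30 °C; 1 = growth at the plate median or of vehicle wells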
conditions: S. cerevisiae deletion strains, growth OD, locus YAL040C, strain CLN3, stronger effect = lower value
Screen size: about 5,500 compounds; about 2,000 (36%) were called active. Inconclusive results (about 18%) are left out. Some of the results follow.
Each entry below carries its reported normalized growth.

compound	normalized growth
CCSC(N)=Nc1ccc(C(F)(F)F)cc1	0.942
CC(C)(C)c1ccc(C(O)CCCN2CCC(C(O)(c3ccccc3)c3ccccc3)CC2)cc1 (stereo unspecified)	0.991
O=c1[nH]c(=O)n([C@H]2C[C@H](O)[C@@H](CO)O2)cc1Br	1.08
O=C(O)c1ccccc1Nc1ccccc1	1.01
CN1[C@@H](CC(=O)c2ccccc2)CCC[C@H]1C[C@H](O)c1ccccc1	1.01
CN(C(=O)CCCOc1ccc2[nH]c(=O)ccc2c1)C1CCCCC1	0.998
NCC(CP(=O)(O)O)c1ccc(Cl)cc1 (stereo unspecified)	1.04
CC(N)[C@H](O)c1ccc(O)c(O)c1 (stereo partly specified)	1.05
CO[C@@]1(NC(=O)CSCC#N)C(=O)N2C(C(=O)O)=C(CSc3nnnn3C)CS[C@@H]21	1.01
OC[C@H]1O[C@@H](n2cnc3c(NCCc4ccccc4)ncnc32)C(O)[C@H]1O (stereo partly specified)	0.979
CC(C)NC[C@H](O)c1ccc(O)c(O)c1	0.998
O=[N+]([O-])c1ccc2nc(N3CCNCC3)ccc2c1	0.985
O=C(O)/C=C/c1cnc[nH]1	1.01
C=C(C)C1CC=C(C(=O)O)CC1 (stereo unspecified)	0.991
C[C@H](Cc1ccc(O)c(O)c1)[C@@H](C)Cc1ccc(O)c(O)c1	1.07
NCC(O)c1ccc(O)cc1 (stereo unspecified)	1
Nc1ncnc2c1ncn2[C@@H]1O[C@H](COP(=O)(O)CP(=O)(O)OP(=O)(O)O)[C@H](O)C1O (stereo partly specified)	1.08
NC(Cc1ccc(O)c(O)c1)C(=O)O (stereo unspecified)	1.02
O=C(O)c1ccccc1Nc1cccc(OCc2ccc3ccccc3n2)c1	0.932
CN/C(=C\[N+](=O)[O-])NCCSCc1ccc(CN(C)C)o1	1
NC1C=CC=C(C(=O)O)C1 (stereo unspecified)	0.969
Nc1ncnc2c1ncn2[C@@H]1O[C@H](COP(=O)(O)OP(=O)(O)OP(=O)(O)OP(=O)(O)OC[C@@H]2O[C@H](n3cnc4c(N)ncnc43)C(O)[C@@H]2O)[C@H](O)C1O (stereo partly specified)	1.01
NCCNC(=O)c1ccc(Cl)cc1	1.07
CN(CCOc1ccc(C[C@H](Nc2ccccc2C(=O)c2ccccc2)C(=O)O)cc1)c1ccccn1	1.09
CN(C)CCOC(C)(c1ccccc1)c1ccccn1 (stereo unspecified)	0.998
COc1cc(C(O)CN)ccc1O (stereo unspecified)	1.01
O=C(CCNNC(=O)c1ccncc1)NCc1ccccc1	0.999
N=c1c[n+](N2CCOCC2)[n-]o1	1
OCC1NCC(O)C(O)C1O (stereo unspecified)	1.02
Nc1ncnc2c1ncn2[C@@H]1O[C@H](CO)[C@H](O)C1O (stereo partly specified)	0.999
CC(C)NC[C@@H](O)c1ccc(O)c(O)c1	1.03

====

assay details: chemical genetic growth profiling, strain panel (AID 1159580)
conditions: S. cerevisiae deletion strains, growth OD, locus YER133W, strain GLC7, stronger effect = lower value
Screen size: about 5,500 compounds; about 2,000 (36%) were called active. About 18% were inconclusive and are not listed. The list shows a part of the results.
TRUE if normalized growth is below 0.9. FALSE if not; exact matches included in FALSE.

> print(dat)
                         chemical.structure  assigned.class
1                  O=[N+]([O-])/C=C/c1ccsc1            TRUE
2          C=CCOc1ccc(/C=C/[N+](=O)[O-])cc1            TRUE
3           CSc1cc(-c2ccncc2)nc(-c2cccs2)c1           FALSE
4  Cc1cc(Br)ccc1-n1c(Sc2c([N+](=O)[O-])cc(C(F)(F)F)cc2[N+](=O)[O-])nc2ccccc2c1=O           FALSE
5  O=S(=O)(N/N=C\c1ccc(Cl)cc1)c1ccc(-c2ccccn2)s1           FALSE

====

assay details: chemical genetic growth profiling, strain panel (AID 1159580);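 note: tested at 20 µM; growth read once vehicle control cultures reached saturation at 30 °C; 1 = growth at the plate median or of vehicle wells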
conditions: S. cerevisiae deletion strains, growth OD, locus YNL307C, strain MCK1 (second series), stronger effect = lower value
Out of some 5,500 compounds screened, about 2,000 (36%) were called active. About 18% were inconclusive and are not listed. Some of the results follow.
measured property: normalized growth

> print(dat)
                                   compound       test.result
1  Cc1c2c(=O)[nH]ncc2c(-c2ccccc2)n1-c1ccc([N+](=O)[O-])cc1  0.949 (inactive)
2  O=C(NC(=O)c1c(F)cccc1Cl)OCc1ccc(Cl)cc1Cl  0.828 (inactive)
3   Cn1c(CSCCOc2ccccc2)nnc1SCc1ccc(Cl)cc1Cl   0.96 (inactive)
4       CC(C)c1ccc(NC(=S)NC(=O)c2ccccc2)cc1   0.91 (inactive)
5  CC(C)c1ccc(NCC(O)CSc2ccccc2)cc1 (stereo unspecified)  0.802 (inactive)
6         O=C(NCc1ccncc1)c1ccc(-n2cccn2)cc1  0.966 (inactive)

====

assay details: chemical genetic growth profiling, strain panel (AID 1159580);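 note: tested at 20 µM; growth read once vehicle control cultures reached saturation at 30 °C; 1 = growth at the plate median or of vehicle wells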
conditions: S. cerevisiae deletion strains, growth OD, locus YDR297W, strain sur2, stronger effect = lower value
Among all 5,500 compounds or so, about 2,000 (36%) were called active. Another 18% or so got no clear call; they are omitted. The list shows a part of the results.
Flag rule - normalized growth less than 1 flags class 1; the remaining entries get class 0.

> print(dat)
                                   molecule  assigned.class
1  Cc1c(O)c(O)cc2c1CC=C1[C@@]2(C)CC[C@@]2(C)C3C[C@](C)(C(=O)O)CC[C@]3(C)CC[C@]12C (stereo partly drawn)         class 1
2                   O=C(O)/C=C/C=C/c1ccccc1         class 1
3  CCN(CC)CCOc1ccc(/C(=C(\Cl)c2ccccc2)c2ccccc2)cc1         class 1
4  CCCCC(CC)CN1CN(CC(CC)CCCC)CC(C)(N)C1 (stereo not drawn)         class 1
5                       CS(=O)(=O)CCCCN=C=S         class 1
6  C1CCN2C[C@@H]3C[C@H](CN4CCCC[C@@H]34)[C@H]2C1         class 0

====

assay details: chemical genetic growth profiling, strain panel (AID 1159580);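 note: tested at 20 µM; growth read once vehicle control cultures reached saturation at 30 °C; 1 = growth at the plate median or of vehicle wells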
conditions: S. cerevisiae deletion strains, growth OD, locus YNL161W, strain CBK1, stronger effect = lower value
Out of some 5,500 compounds screened, about 2,000 (36%) were called active. Not shown: some 18% with an inconclusive outcome. This is one part of the list.
# normalized growth annotations
measured property: normalized growth

> print(dat)
                                    molecule  test.result
 1  Cc1c2c(=O)[nH]ncc2c(-c2ccccc2)n1-c1ccc([N+](=O)[O-])cc1        0.998
 2  CC(=O)Nc1ccc([N+](=O)[O-])cc1[N+](=O)[O-]        0.722
 3  CC(C)c1ccc(NCC(O)CSc2ccccc2)cc1 (stereo not drawn)        0.963
 4  O=[N+]([O-])c1cc(Br)cnc1Sc1nnc(SCC2CC2)s1        0.939
 5  CCOC(=O)C1=C(N)OC2=C(C(=O)CC(C)(C)C2)C1c1ccc(Cl)cc1Cl (stereo not drawn)        0.983
 6  O=C(Nc1ccc(N2CCOCC2)cc1)c1ccc(-n2cccn2)cc1        0.978
 7  CCCc1c(C(=O)NC2Cc3ccccc3C2)cnn1-c1ccccc1        0.991
 8  CCOC(=O)/C(=N/Nc1c(Cl)cccc1Cl)c1csc(N)n1        0.969
 9  O=C(c1ccc2ccccc2c1)N1CCN(c2ccnc3cc(Cl)ccc23)CC1        0.997
10  O=[N+]([O-])c1ccccc1CS(=O)(=O)c1nc2ccccc2s1        0.885
11  N#CC(C#N)=C/C=C(/Sc1nc2ccccc2s1)c1ccc(Br)cc1        0.164
12  O=C1CSC(c2cccnc2)N1c1ccc(Cl)cc1Cl (stereo not drawn)        0.985
13  Cc1cc(Br)ccc1-n1c(Sc2c([N+](=O)[O-])cc(C(F)(F)F)cc2[N+](=O)[O-])nc2ccccc2c1=O        0.982
14  Cc1ccc(S(=O)(=O)CCSC2=CC(=O)CC(C)(C)S2)cc1            1
15  CCCc1c(C(=O)NNc2cccc(Cl)c2)cnn1-c1ccccc1        0.983
16  O=C(NCCSCc1cccc(C(F)(F)F)c1)Nc1cccc(C(F)(F)F)c1            1
17         NC(=Nc1ccc(F)cc1)SCc1c(Cl)cccc1Cl        0.988
18          CSc1ccc(/C=C(\C)[N+](=O)[O-])cc1       0.0836
19  CC(=O)c1sc(SCCS(=O)(=O)c2ccc(C)cc2)c2c1CC(C)(C)CC2=O        0.973
20  S=C(N/N=C\c1ccc(Cl)cc1)N/N=C\c1ccc(Cl)cc1        0.963
21       CC(C)c1ccc(NC(=S)NC(=O)c2ccccc2)cc1        0.959
22         O=C(NCc1ccncc1)c1ccc(-n2cccn2)cc1        0.985
23  O=C(NC(=O)c1c(F)cccc1Cl)OCc1ccc(Cl)cc1Cl        0.974
